# key: entry, value: ED50
Tested on: urinary reflex
Assay: Supression of urinary reflex (bladder balloon, intraduodenal administration)
Format: in vivo, male Wister rats
Details: Rattus norvegicus; 50% effective dose; suppression of urinary reflex by more than 50%; up and down method; anesthetized male Wister rats; via duodenum; read-out: ID50 (the source's name)
Your answer is read as mg/kg, so omit the unit and give the number.

Solved entries:
CCN(CC)CCN(C)C(=O)c1cccc2c(=O)c(C)c(-c3ccccc3)oc12: 46.7
Cc1c(-c2ccccc2)oc2c(C(=O)NCCN3CCCCC3)cccc2c1=O: 26.8
CCN(CC)CCNC(=O)c1cccc2c(=O)c(C)c(-c3ccc(OC)cc3)oc12: 93.3

Kindly consider the entry below.
Q. # assay system urinary reflex: give ED50 of Cc1c(-c2ccccc2)oc2c(C(=O)OCCN3CCCCC3)cccc2c1=O [Reference 1, flavoxate, reference compound]
A. 272

###

Assay: in vitro
Format: in vitro ADME, male Wister rats
Settings: rat, small intestinal mucosa homogenate, pH 6
# note: boundary value 6 days maps to rule not met; half-life at 50 µM below it maps to rule met

// below: answered compounds
Cc1c(-c2ccccc2)oc2c(C(=O)NCCN3CCCCC3)cccc2c1=O: rule not met
CCN(CC)CCNC(=O)c1cccc2c(=O)c(C)c(-c3ccc(OC)cc3)oc12: rule not met

Q. Hello, I'm reviewing records and need to know if half-life at 50 µM of Cc1c(-c2ccccc2)oc2c(C(=O)OCCN3CCCCC3)cccc2c1=O [Reference 1, flavoxate, reference compound] is below 6 days. Could you check?
A. rule met

Q. Hello, I'm reviewing records and need to know if half-life at 50 µM of CCN(CC)CCOC(=O)c1cccc2c(=O)c(C)c(-c3ccccc3)oc12 [Reference 2, reference compound] is below 6 days. Could you check?
A. rule met

Q. Hello, I'm reviewing records and need to know if half-life at 50 µM of "CCN(CC)CCN(C)C(=O)c1cccc2c(=O)c(C)c(-c3ccccc3)oc12" is below 6 days. Could you check?
A. rule not met

Q. Hello, I'm reviewing records and need to know if half-life at 50 µM of Cc1c(-c2ccccc2)oc2c(C(=O)NCC(C)N3CCCCC3)cccc2c1=O (stereo not shown) is below 6 days. Could you check?
A. rule not met

Q. Hello, I'm reviewing records and need to know if half-life at 50 µM of "CCN(CC)CCNC(=O)c1cccc2c(=O)c(C)c(-c3ccccc3)oc12" is below 6 days. Could you check?
A. rule not met

###

Tested on: urinary reflex
Experiment: Supression of urinary reflex (bladder balloon, intraduodenal administration)
Assay type: in vivo, male Wister rats
Details: Rattus norvegicus; 50% effective dose; suppression of urinary reflex by more than 50%; up and down method; anesthetized male Wister rats; via duodenum; read-out: ID50 (the source's name)
# key: entry, value: ED50
Your answer is read as mg/kg, so omit the unit and give the number.

Q. State, in one line, measured ED50 of Cc1c(-c2ccccc2)oc2c(C(=O)O)cccc2c1=O [Reference 3, reference compound]
A. 308

Q. State, in one line, measured ED50 of Cc1c(-c2ccccc2)oc2c(C(=O)NCC(C)N3CCCCC3)cccc2c1=O (stereo not shown)
A. 46.7

Q. State, in one line, measured ED50 of CCN(CC)CCOC(=O)c1cccc2c(=O)c(C)c(-c3ccccc3)oc12 [Reference 2, reference compound]
A. 325

Q. State, in one line, measured ED50 of "CCN(CC)CCNC(=O)c1cccc2c(=O)c(C)c(-c3ccccc3)oc12"
A. 36.7
